Attribution: ChEMBL document CHEMBL3997787

For each record, write down the corresponding inhibition.
Target System: UniProt:P34972
Sequence (P34972 whole entry): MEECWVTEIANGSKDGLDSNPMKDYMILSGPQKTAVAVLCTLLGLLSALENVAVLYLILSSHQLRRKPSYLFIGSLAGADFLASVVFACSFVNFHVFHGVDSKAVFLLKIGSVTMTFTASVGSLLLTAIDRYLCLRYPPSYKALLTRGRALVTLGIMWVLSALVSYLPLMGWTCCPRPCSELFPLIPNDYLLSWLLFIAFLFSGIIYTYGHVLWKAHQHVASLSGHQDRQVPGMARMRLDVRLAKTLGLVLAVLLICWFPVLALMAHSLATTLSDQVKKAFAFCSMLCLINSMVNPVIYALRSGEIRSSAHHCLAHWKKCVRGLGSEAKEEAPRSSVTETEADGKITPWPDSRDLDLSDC
Method Summary: Displacement of [3H]CP55940 from human CB2 receptor expressed in HEK293 EBNA cell membranes at 4 uM after 90 mins by liquid scintillation and luminescence counting method relative to control

The examples below pair each entry with its known result.
Smiles Notation | inhibition
Cc1cc(-c2cc(C(=O)NC34CC5CC(CC(C5)C3)C4)c(=O)n(Cc3ccc(F)cc3)n2)ccc1Cl | > 70%
Cc1cc(-c2cc(C(=O)NC3CCCCC3)c(=O)n(Cc3ccc(F)cc3)n2)ccc1Cl | > 70%
O=C(NC1CCCCCC1)c1c2c(nn(Cc3ccc(F)cc3)c1=O)-c1ccccc1C2 | > 70%

I need inhibition for every entry listed below, if you could help.
1. C[C@H]1CC[C@@H](NC(=O)c2cc(-c3ccccc3)nn(Cc3ccc(F)cc3)c2=O)CC1
2. Cc1cc(-c2cc(C(=O)N[C@H]3CC[C@H](C)CC3)c(=O)n(Cc3ccc(F)cc3)n2)ccc1Cl

> 70%
> 70%
